Reported self-cleavage is given for each of the following variants.
B1: CPEB3 Ribozyme (parent)
chain: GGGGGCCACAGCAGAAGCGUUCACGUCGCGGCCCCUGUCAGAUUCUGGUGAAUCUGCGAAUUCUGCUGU

- Variants of: B1
- method.description: self-cleavage, relative activity (ratio to wild type); higher = more cleavage; co-transcriptional
// return a plain number; no unit text

Exam item: Return reported self-cleavage; argument: GGGGGCCACAGCAGAAGCGUUCUCGUCGCGGCCCCUGUCAGAUACUGGUGAAUCUGCGAAUUCUGCUGU [A23U U44A]
Marked response: 0.963
